# experiment.summary: Estimation of PMB AUC0-24 from timed steady-state plasma concentrations
# Type: in vivo, human
# experimental.conditions: human, iv, AUC0–24, trapezoidal area, based on Cmin(B) and Cmax(B), mean ± SD, Overall (n = 55)
Where a SMILES comes first, the peptide text is derived from it. Bridges are numbered along the chain shown (N, C = ends). [ ]: non-standard residue; d: D form. The star is where a group is joined. X1 = CC[C@H](C)CCCCC(=O)*; Dab = NCC[C@H](N)C(=O)O
measured.endpoint: AUC(0-t) (µg·h/mL)
Reply with just the number (in µg·h/mL).

Prompt: # get_value(readout='AUC(0-t)', item= CC[C@H](C)CCCCC(=O)N[C@@H](CCN)C(=O)N[C@H](C(=O)N[C@@H](CCN)C(=O)N[C@H]1CCNC(=O)[C@H]([C@@H](C)O)NC(=O)[C@H](CCN)NC(=O)[C@H](CCN)NC(=O)[C@H](CC(C)C)NC(=O)[C@@H](Cc2ccccc2)NC(=O)[C@H](CCN)NC1=O)[C@@H](C)O [PMB, polymyxin B] (X1-[Dab]T[Dab][Dab][Dab][dF]L[Dab][Dab]T; lactam 4-C) )
Response: 116
